Tested on: Pseudomonas syringae pv. syringae DSM 10604
method: ≥ marks a high value that may be exact or a test limit, other limits are often not marked, values filed in µg/mL are converted to µM
attributeMeasured: MIC (µM)
One number for each entry, in µM.

• CC[C@H](C)[C@H](NC(=O)[C@H](CC(C)C)NC(=O)[C@H](CCCN=C(N)N)NC(=O)[C@H](CCCCN)NC(=O)[C@@H](NC(=O)[C@@H](NC(=O)[C@H](CCCCN)NC(=O)[C@H](CCCCN)NC(=O)[C@H](CCCCN)NC(=O)[C@@H](N)CCCCN)[C@@H](C)CC)[C@@H](C)CC)C(N)=O = 0.0789
• CC[C@H](C)[C@H](NC(=O)[C@@H](NC(=O)CNC(=O)[C@H](C)NC(=O)[C@H](CCSC)NC(=O)[C@@H](NC(=O)CNC(=O)[C@H](Cc1ccccc1)NC(=O)[C@@H](NC(=O)[C@H](CC(C)C)NC(=O)[C@@H](NC(=O)[C@H](CC(C)C)NC(=O)[C@H](CCCCN)NC(=O)[C@H](CCCN=C(N)N)NC(=O)[C@@H](N)CCCCN)[C@@H](C)O)C(C)C)C(C)C)C(C)C)C(=O)NCC(=O)N[C@H](C(=O)N[C@@H](CCCCN)C(=O)N[C@@H](CCCCN)C(=O)N[C@@H](CCCN=C(N)N)C(N)=O)[C@@H](C)O = 18.2

Enter reported MIC observed with Pseudomonas syringae pv. syringae DSM 10604 for `CC[C@H](C)[C@H](NC(=O)[C@@H](NC(=O)[C@H](CCCCN)NC(=O)[C@H](CCCCN)NC(=O)[C@@H](NC(=O)[C@@H](NC(=O)[C@H](CCCCN)NC(=O)[C@H](CCCCN)NC(=O)[C@H](CCCCN)NC(=O)[C@H](CCCCN)NC(=O)[C@H](CCCCN)NC(=O)[C@@H](N)CCCCN)[C@@H](C)CC)[C@@H](C)CC)[C@@H](C)CC)C(N)=O`
1.67

====

Would you kindly list MIC for each of these molecules?
Test system: Pseudomonas aeruginosa ATCC 27853
method: ≥ marks a high value that may be exact or a test limit, other limits are often not marked, values filed in µg/mL are converted to µM
Numbers only, in µM.

• CC[C@H](C)[C@H](NC(=O)CN)C(=O)N[C@@H](CCSC)C(=O)N[C@@H](CO)C(=O)N[C@@H](CO)C(=O)N[C@@H](CC(C)C)C(=O)N[C@@H](CCSC)C(=O)N[C@@H](CCCCN)C(=O)N[C@@H](CCCCN)C(=O)N[C@@H](CC(C)C)C(=O)N[C@@H](CCCCN)C(=O)N[C@@H](C)C(=O)N[C@@H](Cc1cnc[nH]1)C(=O)N[C@H](C(=O)N[C@@H](C)C(=O)N[C@@H](CCCCN)C(N)=O)[C@@H](C)CC = 26

// for each molecule below, give its MIC
1. CC(C)[C@H](NC(=O)[C@H](CCCCN)NC(=O)[C@H](C)NC(=O)[C@@H](NC(=O)[C@@H](NC(=O)[C@H](C)NC(=O)[C@H](CCCN=C(N)N)NC(=O)[C@H](Cc1c[nH]c2ccccc12)NC(=O)[C@H](Cc1c[nH]c2ccccc12)NC(=O)CN)[C@@H](C)O)C(C)C)C(=O)N[C@@H](CCCN=C(N)N)C(=O)N[C@@H](CCCCN)C(N)=O
2. CC(C)C[C@H](NC(=O)[C@H](CCCCN)NC(=O)[C@H](CCCCN)NC(=O)[C@H](C)NC(=O)[C@H](CC(C)C)NC(=O)[C@H](CCCCN)NC(=O)[C@H](C)NC(=O)[C@H](CC(C)C)NC(=O)[C@H](CCCCN)NC(=O)[C@H](CCCCN)NC(=O)[C@H](C)NC(=O)[C@H](CC(C)C)NC(=O)[C@@H](N)CCCCN)C(=O)N[C@@H](C)C(N)=O

1. 25
2. 3

Look up MIC: `CC[C@H](C)[C@H](NC(=O)[C@H](CO)NC(=O)[C@H](Cc1c[nH]c2ccccc12)NC(=O)[C@@H]1CCCN1C(=O)[C@@H](NC(=O)[C@H](C)N)[C@@H](C)CC)C(=O)N[C@@H](Cc1c[nH]c2ccccc12)C(=O)N[C@@H](Cc1c[nH]c2ccccc12)C(=O)N[C@@H](Cc1cnc[nH]1)C(=O)N[C@@H](CC(C)C)C(=O)N[C@@H](CC(C)C)C(=O)N[C@@H](Cc1ccccc1)C(=O)N[C@@H](CCCCN)C(=O)NCC(=O)O`
200
